Test system: BT-549
Test: normalised response (% of control), CellTiter-Glo; higher = more viable cells (100 = DMSO, 0 = benzethonium chloride kill control)
Conditions: incubation time: 72 h
Readout Label: normalised response (%)
Reply with just the number (in %).

Example results:
- Compound: "CCN(CC)CCCC(C)Nc1c2ccc(Cl)cc2nc2ccc(OC)cc12 (stereo not drawn) [Mepacrine] (5 nM)"
  Measure Unit: "%"
  normalised response: 104
- Compound: "CCCS(=O)(=O)Nc1ccc(F)c(C(=O)c2c[nH]c3ncc(-c4ccc(Cl)cc4)cc23)c1F [Vemurafenib] (10 nM)"
  Measure Unit: "%"
  normalised response: 91.2
- Compound: "COc1cc2c(NC3CCN(C(C)C)CC3)nc(C3CCCCC3)nc2cc1OCCCN1CCCC1 [UNC0638] (10 nM)"
  Measure Unit: "%"
  normalised response: 98.4
- Compound: "Oc1ncc(N(CCCl)CCCl)c(O)n1 [Uracil mustard] (1 nM)"
  Measure Unit: "%"
  normalised response: 89.4
- Compound: "Nc1ccccc1NC(=O)c1ccc(CNC(=O)OCc2cccnc2)cc1 [Entinostat] (1 nM)"
  Measure Unit: "%"
  normalised response: 103

Please fill in: normalised response reported for COc1cc2c(Oc3ccc4[nH]c(C)cc4c3F)ncnc2cc1OCCCN1CCCC1 [Cediranib] (0.1 nM) = 101

Please fill in: normalised response reported for Cc1cnc(NC(=O)Nc2cc(Br)c(C)cc2OC[C@@H]2CNCCO2)cn1 [Rabusertib] (0.1 nM) = 103

Please fill in: normalised response reported for CCCS(=O)(=O)Nc1ccc(F)c(C(=O)c2c[nH]c3ncc(-c4ccc(Cl)cc4)cc23)c1F [Vemurafenib] (1000 nM) = 93.1

---

Below: a set of entries, each annotated with reported normalised response.
Tested on: Hs578T
Assay: normalised response (% of control), CellTiter-Glo; higher = more viable cells (100 = DMSO, 0 = benzethonium chloride kill control)
Details: incubation time: 72 h
Reply with just the number (in %).

- Compound: "C=CC(=O)Nc1cc2c(Nc3ccc(F)c(Cl)c3)ncnc2cc1OCCCN1CCOCC1 [Canertinib] (1 nM)"
  Reading: 98.6
- Compound: "Nc1ncn([C@H]2C[C@H](O)[C@@H](CO)O2)c(=O)n1 [Decitabine] (10 nM)"
  Reading: 96.3
- Compound: "COc1cc2c(NC3CCN(C(C)C)CC3)nc(C3CCCCC3)nc2cc1OCCCN1CCCC1 [UNC0638] (10 nM)"
  Reading: 99.7
- Compound: "C[C@H]1C[C@@H]2[C@H]([C@@H](O)C[C@@]3(C)[C@H]2CC[C@]3(O)C(=O)CO)[C@@]2(C)C=CC(=O)C=C12 [Methylprednisolone] (1 nM)"
  Reading: 103
- Compound: "N#Cc1ccc(C(c2ccc(C#N)cc2)n2cncn2)cc1 [Letrozole] (1000 nM)"
  Reading: 97.1

Lab note: compound C=CCc1cccc(/C=N/NC(=O)CN2CCN(Cc3ccccc3)CC2)c1O [PAC-1] (1 nM) tested on Hs578T; recorded normalised response was 104

Lab note: compound N#Cc1ccc(C(c2ccc(C#N)cc2)n2cncn2)cc1 [Letrozole] (1 nM) tested on Hs578T; recorded normalised response was 105

Lab note: compound Nc1ccccc1NC(=O)c1ccc(CNC(=O)OCc2cccnc2)cc1 [Entinostat] (1 nM) tested on Hs578T; recorded normalised response was 98.8

Lab note: compound CCc1cncnc1N1CCN(Cc2nc3ccc(C(F)(F)F)cc3[nH]2)CC1 (1 nM) tested on Hs578T; recorded normalised response was 101

Lab note: compound CCCCC(=O)OCC(=O)[C@]1(O)Cc2c(O)c3c(c(O)c2[C@@H](O[C@H]2C[C@H](NC(=O)C(F)(F)F)[C@H](O)[C@H](C)O2)C1)C(=O)c1c(OC)cccc1C3=O [Valrubicin] (0.5 nM) tested on Hs578T; recorded normalised response was 96

Lab note: compound CC1=C(/C=C/C(C)=C/C=C/C(C)=C/C(=O)O)C(C)(C)CCC1 [Tretinoin] (10 nM) tested on Hs578T; recorded normalised response was 97.7

Lab note: compound O=C(Cc1ccc(-c2ccc(OCCN3CCOCC3)cc2)cn1)NCc1ccccc1 [KX2-391] (1 nM) tested on Hs578T; recorded normalised response was 103

Lab note: compound O=C(O)CCCCC(CCSCc1ccccc1)SCc1ccccc1 (configuration not stated) [CPI-613] (1 nM) tested on Hs578T; recorded normalised response was 102

Lab note: compound Oc1ncc(N(CCCl)CCCl)c(O)n1 [Uracil mustard] (10 nM) tested on Hs578T; recorded normalised response was 107

Lab note: compound O=C(/C=C/c1cccnc1)NCCCCC1CCN(C(=O)c2ccccc2)CC1 [Daporinad] (1 nM) tested on Hs578T; recorded normalised response was 97.1

Lab note: compound Nc1ncn([C@H]2C[C@H](O)[C@@H](CO)O2)c(=O)n1 [Decitabine] (1000 nM) tested on Hs578T; recorded normalised response was 93

Lab note: compound C=CC(=O)N1CCC[C@@H](n2nc(-c3ccc(Oc4ccccc4)cc3)c3c(N)ncnc32)C1 [Ibrutinib] (0.1 nM) tested on Hs578T; recorded normalised response was 104

This collection of values is drawn from the supplement of paper PMC4862054.
